Tested on: F380Y/beta1
Experiment: modulators of BK channel variants, profiling panel, selectivity assay, cell-based, U2OS BacMam, thallium flux, beta subunits (AID 1259406);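 also: initial slope of Thallos dye fluorescence rise after thallium is added; log ratio against the mean of 0.3% DMSO vehicle wells on the same plate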
Conditions: at 30 µM
The source made the active and inactive calls.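 The calls were made as follows: active = thallium flux through the channel raised or lowered by more than 3 SD from vehicle-only wells, actives on both sides; inactive = the rest.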
A correct response names exactly one class from TRUE for active, FALSE for inactive

For orientation, consider the following solved cases.
Asked: For this compound, state the assay outcome: `COc1cc([C@@H]2c3cc4c(cc3[C@H](O)[C@H]3COC(=O)[C@H]23)OCO4)cc(OC)c1OC`
Given back: FALSE

Asked: Likewise for Cc1ncc([N+](=O)[O-])n1CC(C)O (stereo not drawn) ?
Given back: FALSE

Asked: What about c1ccc2c(c1)CCCC2C1=NCCN1 (stereo not drawn) ?
Given back: FALSE

Asked: Also, `CC(=O)S[C@@H]1CC2=CC(=O)CC[C@]2(C)[C@H]2CC[C@@]3(C)[C@@H](CC[C@@]34CCC(=O)O4)[C@H]12` please.
Given back: FALSE

Asked: Another compound to look at: CCCNC(C)C(=O)Nc1ccccc1C (stereo not drawn)
Given back: FALSE

Now let's try a different one.
Asked: Per the records of this test, what outcome belongs to CC(C)(C)NCC(O)c1cc(O)cc(O)c1 (stereo not drawn) ?
Given back: FALSE

* * *

Assay: differential killing of epithelial or mesenchymal cells, primary screen, imaging, PC-3E GFP, TEM4-18 mCherry, co-culture (AID 1345086);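 also: cells exposed to compound for 72 h before imaging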
Conditions: imaging cell counts, measured here: epithelial PC-3E GFP cell survival, at 1 µM
This section presents molecules with their documented normalised cell number values.
I only need the number, thanks.

Here are 5 molecules together with their reported answers.
Asked: Param item = CN(C)CCOC(c1ccc(Cl)cc1)c1ccccn1 (stereo unspecified) ; retrieve measured normalised cell number.
Given back: 1.14

Asked: Would you kindly repeat that for `CCCN1C[C@H](CSC)C[C@@H]2c3cccc4[nH]cc(c34)C[C@H]21` ?
Given back: 0.91

Asked: // repeat for CC(C[N+](C)(C)C)OC(N)=O (stereo unspecified) and report
Given back: 1.15

Asked: What about this molecule? `CCCCNc1cc(C(=O)O)cc(S(N)(=O)=O)c1Oc1ccccc1`
Given back: 1.1

Asked: Now try `Cc1ccc(S(=O)(=O)NC(=O)NN2CCCCCC2)cc1` .
Given back: 1.09

Others:
Asked: For `C[C@H](CS)C(=O)N1CCC[C@H]1C(=O)O` , what is its reported normalised cell number?
Given back: 1.01

* * *

Biological target: L-lactate dehydrogenase (Plasmodium falciparum (isolate CDC / Honduras)) (UniProt Q27743)
Sequence (Q27743 whole entry, looked up): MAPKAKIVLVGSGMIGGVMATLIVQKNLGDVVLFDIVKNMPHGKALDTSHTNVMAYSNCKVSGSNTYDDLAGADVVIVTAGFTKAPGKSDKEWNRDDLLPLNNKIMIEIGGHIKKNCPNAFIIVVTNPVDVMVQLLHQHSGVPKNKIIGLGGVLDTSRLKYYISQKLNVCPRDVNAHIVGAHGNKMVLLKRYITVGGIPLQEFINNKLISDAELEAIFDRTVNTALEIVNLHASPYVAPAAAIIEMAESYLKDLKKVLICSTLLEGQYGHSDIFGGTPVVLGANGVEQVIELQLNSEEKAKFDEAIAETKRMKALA
Assay: PfLDH activity inhibition – cell lysate, 3D7 strain, counter-screen for P. falciparum growth inhibition project (AID 2304);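 also: 0% = vehicle and 100% = reference inhibitor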
Settings: P. falciparum 3D7 crude extract, LDH APAD/NBT absorbance; at 2 µM; stronger effect = higher value
endpoint: inhibition (%)
Quick note: give the figure in %, leave out the unit.

Asked: Return reported inhibition; argument: `c1ccc(CC2=NCCN2)cc1`
Given back: -3

Asked: Could you do the same for CCN(CC)CCCC(C)Nc1c2ccc(Cl)cc2nc2ccc(OC)cc12 (stereo not drawn) , please?
Given back: 0

Asked: Field entry: `CN(C)c1cc2c(Nc3ccc4nc(Cc5ccccc5)[nH]c4c3)ncnc2cn1`
Given back: 0

New cases:
Asked: Report inhibition for `N=C(N)c1ccc(OCCCCCOc2ccc(C(=N)N)cc2)cc1` please.
Given back: -2

Asked: Then this compound: CCN(CCO)CCCC(C)Nc1ccnc2cc(Cl)ccc12 (stereo not drawn)
Given back: -1

Asked: Follow-up entry: `Cc1ccc(O)cc1Nc1ccnc2cc(-c3ccccn3)ccc12`
Given back: -2

Asked: Further, for `CC[C@H]1CN2CCc3cc(OC)c(OC)cc3[C@@H]2C[C@@H]1C[C@H]1NCCc2cc(OC)c(OC)cc21` ?
Given back: -3

Asked: What do we get for `Nc1ncnc2occ(-c3ccc(NC(=O)Nc4cc(C(F)(F)F)ccc4F)cc3)c12` ?
Given back: -1

* * *

Assay: modulators of glucocorticoid suppression of NF-kB, cell-based, luciferase, IL-1B stimulus, dexamethasone (AID 624486);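 also: 100% = mean signal of vehicle control wells on the plate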
Settings: NF-kB luciferase reporter, IL-1B + dexamethasone, luminescence; actives lie on both sides, concentration not given here
Calls of active or inactive are those of the source. How the calls were made is not given here.
Returns: one label drawn from active, inactive

Asked: Entry `CS(=O)(=O)Nc1ccc(N=Cc2c(O)[nH]c3ccccc23)cc1` : call = ?
Given back: inactive

Let's switch to this compound now.
Asked: Hi team, can someone confirm the assay call for `Cn1c(=O)c(Oc2ccc(F)cc2F)cc2cnc(NC3CCOCC3)nc21` ?
Given back: inactive

* * *

Experiment: ovarian cancer cell viability with rucaparib, profiling panel, oncology-focused library, rucaparib conditional (AID 1508598)
Conditions: patient-derived ovarian cancer cells, CellTiter-Glo viability, 144 h; at 0.000305 µM; OCI-P5x cells; with rucaparib 20 µM; stronger effect = lower value; 100% = cells with rucaparib alone
endpoint: viability (%)
Could you give me the number in %? Just the number is fine.

Asked: // query viability value for entry `NC(=O)c1ccc(-c2nc(-c3ccc4c(c3)OCO4)c(-c3ccccn3)[nH]2)cc1`
Given back: 116

Asked: Same lookup for `CC(C)C(=O)Nc1ccc([N+](=O)[O-])c(C(F)(F)F)c1` , please.
Given back: 93.2

Asked: Try the compound `CC1=C(/C=C/C(C)=C/C=C/C(C)=C/C(=O)O)C(C)(C)CCC1`
Given back: 102

Asked: Next record, please: `O=c1[nH]cc(F)c(=O)[nH]1`
Given back: 113

* * *

Catalogue of log fold change Tl+ flux values
Tested on: R275C/beta2Delta
Assay: modulators of BK channel variants, profiling panel, selectivity assay, cell-based, U2OS BacMam, thallium flux, beta subunits (AID 1259406);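 also: initial slope of Thallos dye fluorescence rise after thallium is added; log ratio against the mean of 0.3% DMSO vehicle wells on the same plate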
Details: at 30 µM
Give a plain numeric answer without units written out.

Use the examples below as a reference point.
Asked: Suppose we examine the molecule `CC1(C)O[C@@H]2[C@@H](CO[C@@]3(COS(N)(=O)=O)OC(C)(C)O[C@@H]23)O1` ; what log fold change Tl+ flux value has been reported?
Given back: 0.0245

Asked: Input `C[C@]12CCC(=O)C=C1CC[C@@H]1[C@@H]2C(=O)C[C@@]2(C)[C@H]1CC[C@]2(O)C(=O)CO`
Given back: -0.0316

Asked: How about `COC(=O)Nc1nc2ccc(C(=O)c3ccccc3)cc2[nH]1` ?
Given back: -0.00163

Asked: Cool, now CN(C)CCOC(c1ccc(Cl)cc1)c1ccccn1 (centres undefined)
Given back: 0.0559

Asked: Same question for `C[C@]12C=CC(=O)C=C1CC[C@@H]1[C@@H]2[C@@H](O)C[C@@]2(C)[C@H]1CC[C@]2(O)C(=O)CO` please.
Given back: 0.0197

Asked: Then `CC(=O)Nc1nnc(S(N)(=O)=O)s1` ?
Given back: 0.0403

New cases:
Asked: I'd like to know its log fold change Tl+ flux. The molecule in question is `Cc1onc(-c2c(Cl)cccc2Cl)c1C(=O)N[C@@H]1C(=O)N2[C@@H]1SC(C)(C)[C@@H]2C(=O)O`
Given back: 0.00693

Asked: Can you check `CCCNC(=O)NS(=O)(=O)c1ccc(Cl)cc1` next?
Given back: 0.0638

Asked: Input CC1Cc2ccccc2N1NC(=O)c1ccc(Cl)c(S(N)(=O)=O)c1 (centres undefined)
Given back: -0.00869

Asked: Now consider CC(C)NCC(O)c1cc(O)cc(O)c1 (centres undefined) .
Given back: 0.0259

Asked: Thanks! And `CC[N+](C)(C)c1cccc(O)c1` ?
Given back: 0.0107

Asked: How about this molecule: COc1ccccc1OCC(O)COC(N)=O (centres undefined)
Given back: -0.018

Asked: Next up: `C#C[C@]1(O)CC[C@H]2[C@@H]3CCC4=Cc5oncc5C[C@]4(C)[C@H]3CC[C@@]21C`
Given back: -0.00872

Asked: Record: `OCCN1C[C@H](O)[C@@H](O)[C@H](O)[C@H]1CO`
Given back: -0.00824

Asked: Let us now turn to `CS(=O)(=O)OCCCCOS(C)(=O)=O`
Given back: 0.0365

Asked: Item: `Cc1cccc(Nc2ccncc2S(=O)(=O)NC(=O)NC(C)C)c1`
Given back: 0.0124

Asked: Input O=C1C(CCS(=O)c2ccccc2)C(=O)N(c2ccccc2)N1c1ccccc1 (centres undefined)
Given back: -0.0044

Asked: Also, `Cn1c(=O)c2[nH]cnc2n(C)c1=O` please.
Given back: -0.00245

* * *

Test: ovarian cancer cell viability with rucaparib, profiling panel, oncology-focused library, rucaparib conditional (AID 1508598)
Conditions: patient-derived ovarian cancer cells, CellTiter-Glo viability, 144 h; at 0.00122 µM; OCI-C5x cells; without rucaparib; stronger effect = lower value
Calls of active or inactive are those of the source.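 How the source made its calls: active means normalized viability below 100% at a tested concentration; inactive means the rest.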
endpoint: viability

Asked: Report viability for `CC1=C(/C=C/C(C)=C/C=C/C(C)=C/C(=O)O)C(C)(C)CCC1` please.
Given back: 121% (inactive)

Asked: And what about the molecule CN(CCOc1ccc(CC2SC(=O)NC2=O)cc1)c1ccccn1 (stereo not drawn) ?
Given back: 133% (inactive)

meta.source: PubChem BioAssay
